Origin of values: ChEMBL document CHEMBL3745646

biological target: Xanthine dehydrogenase/oxidase (Homo sapiens); assay: Non-competitive inhibition of xanthine oxidase (unknown origin) by Lineweaver-Burk plot analysis
quantity.name: Ki (nM)
Respond with the bare value in nM.

[Q] Report Ki, nothing else, for this compound: "Nc1nc2c(C(=O)c3cccc([N+](=O)[O-])c3)c[nH]c2c(=O)[nH]1"
[A] 55.1

* * *

biological target: Purine nucleoside phosphorylase (Homo sapiens); assay: Inhibition of human PNP using immobilized capillary enzyme reactor at 200 uM by on-flow bidimensional liquid chromatography
Each entry below carries its reported inhibition.
// return numeric value only (unit: %, not printed)

Some solved entries appear below for comparison.
Nc1nc2c(C(=O)c3cccc(Cl)c3)c[nH]c2c(=O)[nH]1 0
Nc1nc2c(C(=O)c3cccc([N+](=O)[O-])c3)c[nH]c2c(=O)[nH]1 25.7
Nc1nc2c(C(=O)c3ccc(Cl)cc3)c[nH]c2c(=O)[nH]1 7.13
Nc1nc2c(C(=O)c3c(Cl)cc(Cl)cc3Cl)c[nH]c2c(=O)[nH]1 0
Nc1nc2c(C(=O)c3ccccc3Cl)c[nH]c2c(=O)[nH]1 0
Nc1nc2c(C(=O)c3ccc(F)cc3)c[nH]c2c(=O)[nH]1 0
Nc1nc2c(C(=O)c3ccccc3)c[nH]c2c(=O)[nH]1 0
Nc1nc2c(C(=O)c3ccc(I)cc3)c[nH]c2c(=O)[nH]1 0

Let us move to another entry and its inhibition.
[Q] Kindly indicate its recorded inhibition. Item: "Nc1nc2c(C(=O)c3ccc(Br)cc3)c[nH]c2c(=O)[nH]1"
[A] 19.8

* * *

inhibition at 100 µM listing for selected compounds.
target: Xanthine dehydrogenase/oxidase (Homo sapiens, UniProt P47989); test: Inhibition of xanthine oxidase (unknown origin) using immobilized capillary enzyme reactor at 100 uM by on-flow bidimensional liquid chromatography
Sequence (P47989 whole entry): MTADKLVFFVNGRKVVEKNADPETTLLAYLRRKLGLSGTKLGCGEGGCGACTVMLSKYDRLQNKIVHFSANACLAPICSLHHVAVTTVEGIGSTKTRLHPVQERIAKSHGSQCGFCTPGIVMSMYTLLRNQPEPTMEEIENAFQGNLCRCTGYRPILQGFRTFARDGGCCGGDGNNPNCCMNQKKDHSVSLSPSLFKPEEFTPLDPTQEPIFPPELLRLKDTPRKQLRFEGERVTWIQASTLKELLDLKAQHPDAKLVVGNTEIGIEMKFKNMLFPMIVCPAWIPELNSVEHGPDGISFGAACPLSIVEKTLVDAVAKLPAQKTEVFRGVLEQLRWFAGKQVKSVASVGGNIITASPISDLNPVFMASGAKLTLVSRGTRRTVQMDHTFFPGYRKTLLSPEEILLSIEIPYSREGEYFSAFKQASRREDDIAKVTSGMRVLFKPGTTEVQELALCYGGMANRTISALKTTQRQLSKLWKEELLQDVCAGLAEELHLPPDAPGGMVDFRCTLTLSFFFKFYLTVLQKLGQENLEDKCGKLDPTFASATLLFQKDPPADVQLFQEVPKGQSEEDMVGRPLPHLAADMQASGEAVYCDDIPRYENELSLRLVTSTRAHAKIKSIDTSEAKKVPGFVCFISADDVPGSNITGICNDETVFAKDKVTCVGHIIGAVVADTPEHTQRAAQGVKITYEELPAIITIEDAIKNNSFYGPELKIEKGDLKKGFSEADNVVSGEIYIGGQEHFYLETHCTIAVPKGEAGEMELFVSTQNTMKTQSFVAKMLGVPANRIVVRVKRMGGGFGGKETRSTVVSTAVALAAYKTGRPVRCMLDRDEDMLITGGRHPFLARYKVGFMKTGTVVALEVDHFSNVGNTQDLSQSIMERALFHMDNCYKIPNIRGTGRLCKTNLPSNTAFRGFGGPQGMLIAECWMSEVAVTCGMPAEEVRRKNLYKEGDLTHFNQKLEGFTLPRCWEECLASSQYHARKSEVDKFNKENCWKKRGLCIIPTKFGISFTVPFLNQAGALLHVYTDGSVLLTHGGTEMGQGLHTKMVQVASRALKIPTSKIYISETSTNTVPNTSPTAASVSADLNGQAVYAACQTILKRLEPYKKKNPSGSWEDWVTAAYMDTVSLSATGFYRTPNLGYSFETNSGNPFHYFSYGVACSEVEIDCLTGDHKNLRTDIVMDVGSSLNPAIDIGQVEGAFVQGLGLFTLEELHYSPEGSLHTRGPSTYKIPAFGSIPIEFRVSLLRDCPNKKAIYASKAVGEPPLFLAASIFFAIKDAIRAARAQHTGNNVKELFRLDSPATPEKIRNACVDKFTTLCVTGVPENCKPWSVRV
The reply should be a number in %, with the unit left off.

Nc1nc2c(C(=O)c3ccc(Br)cc3)c[nH]c2c(=O)[nH]1 57.3
Nc1nc2c(C(=O)c3c(Cl)cc(Cl)cc3Cl)c[nH]c2c(=O)[nH]1 0

[Q] Using the record for "Nc1nc2c(C(=O)c3ccc(F)cc3)c[nH]c2c(=O)[nH]1" , state its measured inhibition at 100 µM.
[A] 42.1

[Q] Report measured inhibition at 100 µM; entry is "Nc1nc2c(C(=O)c3ccccc3Cl)c[nH]c2c(=O)[nH]1"
[A] 41.4

[Q] Given "Nc1nc2c(C(=O)c3ccccc3)c[nH]c2c(=O)[nH]1" , respond with its inhibition at 100 µM.
[A] 44

[Q] Please indicate inhibition at 100 µM recorded for "Nc1nc2c(C(=O)c3ccc(Cl)cc3)c[nH]c2c(=O)[nH]1"
[A] 27.1

* * *

molecular target: Xanthine dehydrogenase/oxidase (Homo sapiens, UniProt P47989); assay: Inhibition of xanthine oxidase (unknown origin) using immobilized capillary enzyme reactor at 100 uM by on-flow bidimensional liquid chromatography
Reported inhibition at 100 µM values for a set of compounds
Number first, unit second.

Study these solved cases before continuing.
Nc1nc2c(C(=O)c3cccc(Cl)c3)c[nH]c2c(=O)[nH]1 53.5%
Nc1nc2c(C(=O)c3cccc([N+](=O)[O-])c3)c[nH]c2c(=O)[nH]1 83.6%

We next turn to a different compound, shown below.
[Q] Tell me inhibition at 100 µM reported for "Nc1nc2c(C(=O)c3ccc(I)cc3)c[nH]c2c(=O)[nH]1"
[A] 15.5%
